Entries annotated with measured Kd
Target: T1, ArtA (Staphylococcus aureus plasmid pSK41, UniProt Q52270 1-62)
T1 sequence: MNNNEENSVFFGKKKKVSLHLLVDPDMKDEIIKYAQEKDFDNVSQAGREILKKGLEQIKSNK
Assay: fluorescence polarization
Use nM as the unit, but write only the number.

Here is how some binders turned out for Kd.
Porf259 11-mer (dsDNA) DNA 1: ACATGACAGGT DNA 2: ACCTGTCATGT : 790
PtraA operator (dsDNA) DNA 1: TTACATGACATGACATGTAATAC DNA 2: GTATTACATGTCATGTCATGTAA : 42

// sample 16-mer consensus (dsDNA) DNA 1: ACATGACATGACATGT DNA 2: ACATGTCATGTCATGT , its Kd was 60
